Cited source for all entries: patent US10501489B2

System: RAW264.7 mouse macrophages
assay: Suppression of IFNγ-induced NO production (nitric oxide production and cell viability assay)
Assay type: cell-based
conditionSet: RAW264.7 cells, drug pre-treatment 2 hours, then recombinant mouse IFNγ 24 hours; Griess reagent; normalized to cell viability (WST-1)
recordedMetric: log10(IC50) (log10 of the value in nM)
Scale: log10; quantity: IC50; unit before log: nM

compound	log10(IC50)
CC1(C)CC[C@]2(CCC(=O)N3CCC3)CC[C@]3(C)[C@H](C(=O)C=C4[C@@]5(C)C=C(C#N)C(=O)C(C)(C)[C@@H]5CC[C@]43C)[C@@H]2C1 [TX63950]	-0.40
CCNC(=O)CC[C@]12CCC(C)(C)C[C@H]1[C@H]1C(=O)C=C3[C@@]4(C)C=C(C#N)C(=O)C(C)(C)[C@@H]4CC[C@@]3(C)[C@]1(C)CC2 [TX63768]	-0.52
CC(=O)NNC(=O)CC[C@]12CCC(C)(C)C[C@H]1[C@H]1C(=O)C=C3[C@@]4(C)C=C(C#N)C(=O)C(C)(C)[C@@H]4CC[C@@]3(C)[C@]1(C)CC2 [TX64045]	0.75
CCNC(=O)OCCC[C@]12CCC(C)(C)C[C@H]1[C@H]1C(=O)C=C3[C@@]4(C)C=C(C#N)C(=O)C(C)(C)[C@@H]4CC[C@@]3(C)[C@]1(C)CC2 [TX63983]	0.73

query: For RAW264.7 mouse macrophages, provide log10(IC50) of CC(C)OC(=O)CC[C@]12CCC(C)(C)C[C@H]1[C@H]1C(=O)C=C3[C@@]4(C)C=C(C#N)C(=O)C(C)(C)[C@@H]4CC[C@@]3(C)[C@]1(C)CC2 [TX64043] please.
result: 1.32

====

Tested on: RAW264.7 mouse macrophages
assay: Suppression of IFNγ-induced NO production (nitric oxide production and cell viability assay)
Assay type: cell-based
conditionSet: RAW264.7 cells, drug pre-treatment 2 hours, then recombinant mouse IFNγ 24 hours; Griess reagent; normalized to cell viability (WST-1)
Protocol: Assay results for the suppression of IFNγ-induced NO production are shown for several of the compounds of the present invention in Table 1 below. […] Details regarding this assay are provided in the Examples section below. […] Nitric Oxide concentration in media was determined using the Griess reagent system (Promega). Cell viability was determined using WST-1 reagent (Roche). IC50 values were determined based on the suppression of IFNγ induced Nitric Oxide production normalized to cell viability.
recordedMetric: pIC50
Convention used: pIC50 is expressed as -log10 of the molar concentration.

Look over these answered cases.
compound	quantitativeResult
CC1(C)CC[C@]2(CCC(=O)OC3CCNCC3)CC[C@]3(C)[C@H](C(=O)C=C4[C@@]5(C)C=C(C#N)C(=O)C(C)(C)[C@@H]5CC[C@]43C)[C@@H]2C1 [TX64055]	8.77
CC1(C)CC[C@]2(CCC(=O)NCC(=O)O)CC[C@]3(C)[C@H](C(=O)C=C4[C@@]5(C)C=C(C#N)C(=O)C(C)(C)[C@@H]5CC[C@]43C)[C@@H]2C1 [TX64054]	7.01
CC1(C)CC[C@]2(CCO)CC[C@]3(C)[C@H](C(=O)C=C4[C@@]5(C)C=C(C#N)C(=O)C(C)(C)[C@@H]5CC[C@]43C)[C@@H]2C1 [TX63608]	8.96
COCC[C@]12CCC(C)(C)C[C@H]1[C@H]1C(=O)C=C3[C@@]4(C)C=C(C#N)C(=O)C(C)(C)[C@@H]4CC[C@@]3(C)[C@]1(C)CC2 [TX63609]	8.54
CCOC(=O)CC[C@]12CCC(C)(C)C[C@H]1[C@H]1C(=O)C=C3[C@@]4(C)C=C(C#N)C(=O)C(C)(C)[C@@H]4CC[C@@]3(C)[C@]1(C)CC2 [TX64042]	8.00
CC1(C)CC[C@]2(CCC(=O)OCc3ccccc3)CC[C@]3(C)[C@H](C(=O)C=C4[C@@]5(C)C=C(C#N)C(=O)C(C)(C)[C@@H]5CC[C@]43C)[C@@H]2C1 [TX64066]	7.70

query: For RAW264.7 mouse macrophages, provide pIC50 of CN(C)C(=O)CC[C@]12CCC(C)(C)C[C@H]1[C@H]1C(=O)C=C3[C@@]4(C)C=C(C#N)C(=O)C(C)(C)[C@@H]4CC[C@@]3(C)[C@]1(C)CC2 [TX64060] please.
result: 9.40

query: For RAW264.7 mouse macrophages, provide pIC50 of CC1(C)CC[C@]2(CCC(=O)NC3CCCCC3)CC[C@]3(C)[C@H](C(=O)C=C4[C@@]5(C)C=C(C#N)C(=O)C(C)(C)[C@@H]5CC[C@]43C)[C@@H]2C1 [TX64057] please.
result: 9.10

query: For RAW264.7 mouse macrophages, provide pIC50 of CC1(C)CC[C@]2(CCCO)CC[C@]3(C)[C@H](C(=O)C=C4[C@@]5(C)C=C(C#N)C(=O)C(C)(C)[C@@H]5CC[C@]43C)[C@@H]2C1 [TX63744] please.
result: 8.96

query: For RAW264.7 mouse macrophages, provide pIC50 of CC1(C)CC[C@]2(CCC(=O)N3CCOCC3)CC[C@]3(C)[C@H](C(=O)C=C4[C@@]5(C)C=C(C#N)C(=O)C(C)(C)[C@@H]5CC[C@]43C)[C@@H]2C1 [TX63763] please.
result: 9.40
